pKd values, listed per item
experimental.target: T1, cynomolgus IL-11 (cynomolgus, UniProt P20808 22-199)
T1 construct: Invigate, lot #C290621-19; also called cIL11; cynoL-11
T1 sequence: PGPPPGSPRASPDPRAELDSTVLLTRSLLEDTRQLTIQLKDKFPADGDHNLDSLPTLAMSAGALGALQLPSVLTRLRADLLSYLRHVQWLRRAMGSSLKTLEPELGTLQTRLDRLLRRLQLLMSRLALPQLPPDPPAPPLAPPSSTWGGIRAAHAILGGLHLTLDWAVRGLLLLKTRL
method.summary: SPR, antibody captured, IL-11 as analyte
pKd: −log10 of the molar value.
measurement.type: pKd

>>> measured("TPP-29384 (antibody, human IgG1, V domains shown) VH: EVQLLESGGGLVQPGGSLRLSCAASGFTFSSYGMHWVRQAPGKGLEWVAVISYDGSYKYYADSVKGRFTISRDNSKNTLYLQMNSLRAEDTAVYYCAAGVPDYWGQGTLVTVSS VL: QSVLTQPPSASGTPGQRVTISCSGSSSNIGSGYDVHWYQQLPGTAPKLLIYSNEERPSGVPDRFSGSKSGTSASLAISGLRSEDEADYYCAAWDPSLSGPVFGGGTKLTVL")
9.07
>>> measured("TPP-29399 (antibody, human IgG1, V domains shown) VH: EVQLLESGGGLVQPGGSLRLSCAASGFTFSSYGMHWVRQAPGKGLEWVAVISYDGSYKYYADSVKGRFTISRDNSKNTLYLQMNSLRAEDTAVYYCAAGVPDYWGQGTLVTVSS VL: QSVLTQPPSASGTPGQRVTISCSGSSSNIGSDYDVHWYQQLPGTAPKLLIYSNNERPSGVPDRFSGSKSGTSASLAISGLRSEDEADYYCAAWDSSLSGPVFGGGTKLTVL")
9.24
>>> measured("TPP-29392 (antibody, human IgG1, V domains shown) VH: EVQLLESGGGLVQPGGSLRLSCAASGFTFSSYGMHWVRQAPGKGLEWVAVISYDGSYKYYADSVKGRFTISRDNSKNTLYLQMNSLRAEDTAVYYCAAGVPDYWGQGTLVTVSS VL: QSVLTQPPSASGTPGQRVTISCSGSSSNIWSDYDVHWYQQLPGTAPKLLIYSNEERPSGVPDRFSGSKSGTSASLAISGLRSEDEADYYCAAWDSSLSGPVFGGGTKLTVL")
9.07
>>> measured("TPP-29389 (antibody, human IgG1, V domains shown) VH: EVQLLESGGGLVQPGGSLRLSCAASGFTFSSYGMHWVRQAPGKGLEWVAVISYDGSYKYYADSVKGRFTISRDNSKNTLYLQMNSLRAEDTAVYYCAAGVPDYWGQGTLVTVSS VL: QSVLTQPPSASGTPGQRVTISCSGSSSNIGSYYDVHWYQQLPGTAPKLLIYSNEERPSGVPDRFSGSKSGTSASLAISGLRSEDEADYYCAAWDPSLYGPVFGGGTKLTVL")
9.04
>>> measured("TPP-29383 (antibody, human IgG1, V domains shown) VH: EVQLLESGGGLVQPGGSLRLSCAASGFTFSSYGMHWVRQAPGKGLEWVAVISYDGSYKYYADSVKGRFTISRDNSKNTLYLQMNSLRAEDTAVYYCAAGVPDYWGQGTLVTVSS VL: QSVLTQPPSASGTPGQRVTISCSGSSSNIGSDLDVHWYQQLPGTAPKLLIYSNEERPSGVPDRFSGSKSGTSASLAISGLRSEDEADYYCAAWDPSLYGPVFGGGTKLTVL")
8.89
>>> measured("TPP-29382 (antibody, human IgG1, V domains shown) VH: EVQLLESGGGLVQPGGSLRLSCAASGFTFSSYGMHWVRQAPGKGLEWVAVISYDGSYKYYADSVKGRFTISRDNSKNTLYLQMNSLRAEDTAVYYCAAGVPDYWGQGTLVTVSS VL: QSVLTQPPSASGTPGQRVTISCSGSSSNIGSDLDVHWYQQLPGTAPKLLIYSNNERPSGVPDRFSGSKSGTSASLAISGLRSEDEADYYCAAWDFSLYGPVFGGGTKLTVL")
9.34
